Kindly supply the reported TGI values for the records listed here.
- System: MCF7 breast
- Test: NCI tumour cell line growth inhibition, 48 h
Record the value in µM, omitting the unit from your answer.

Specify reported TGI for the compound shown: C=C(Cl)[C@](Cl)(CBr)CC[C@@H](Br)C(C)(C)Cl 2.18

Specify reported TGI for the compound shown: Cc1ccc(/C=C(/C#N)n2nnc3cccc(F)c32)cc1 16.6

Specify reported TGI for the compound shown: O=c1c2c3c(sc2nc2n1sc1nc4sc5c(c4c(=O)n12)CCCC5)CCCC3 50.8

Specify reported TGI for the compound shown: CC1(C)COC(c2cccc(C(O)c3ccc(Cl)cc3)c2)=N1 (configuration not stated) 39.6

Specify reported TGI for the compound shown: CCCCNC(=O)CC1=C(C)/C(=C/c2[nH]c(-c3ccc[nH]3)cc2OC)N=C1C 9.39

----------
- Test system: HOP-92 NSCLC
- Test: NCI tumour cell line growth inhibition, 48 h
Kindly supply the reported TGI values for the records listed here.

For HOP-92 NSCLC, give TGI of the listed molecule: CCOc1cc(CC[N+](C)(C)C)c2c(ccc3ccc(OC)c(OC)c32)c1OC > 100 µM

For HOP-92 NSCLC, give TGI of the listed molecule: CCP(C)(=O)CC > 100 µM

For HOP-92 NSCLC, give TGI of the listed molecule: O=c1c2c3c(sc2nc2n1sc1nc4sc5c(c4c(=O)n12)CCCC5)CCCC3 > 91.8 µM

For HOP-92 NSCLC, give TGI of the listed molecule: C=CCc1cc(O)ccc1O > 100 µM

For HOP-92 NSCLC, give TGI of the listed molecule: O=C(CCl)N1CCN(c2ccccc2)CC1 36.2 µM

For HOP-92 NSCLC, give TGI of the listed molecule: CSc1ccccc1NC1=NCCO1 > 100 µM

For HOP-92 NSCLC, give TGI of the listed molecule: Cc1ccc(S(=O)(=O)NCCCSCCN)cc1 > 100 µM

For HOP-92 NSCLC, give TGI of the listed molecule: NC(N)=NCCCC(Nc1c2ccccc2nc2ccccc12)C(=O)O (stereo not given) > 100 µM

For HOP-92 NSCLC, give TGI of the listed molecule: NN/C(=N\S(=O)(=O)c1cc(S(=O)(=O)c2ccccc2)cs1)Nc1ccc(Cl)cc1 > 100 µM

For HOP-92 NSCLC, give TGI of the listed molecule: CCOC(=O)CCCc1cc(=O)c2c(C)c3[nH]c4ccc(Cl)cc4c3c(C)c2[nH]1 68.2 µM

For HOP-92 NSCLC, give TGI of the listed molecule: CN1CCC(=C(c2ccc(Cl)cc2)c2ccccn2)CC1 > 100 µM

For HOP-92 NSCLC, give TGI of the listed molecule: O=c1[nH]c(-c2ccccc2)nc2cc([N+](=O)[O-])c(/C(Cl)=C/c3ccccc3)cc12 35.6 µM

For HOP-92 NSCLC, give TGI of the listed molecule: C=C(Cl)[C@](Cl)(CBr)CC[C@@H](Br)C(C)(C)Cl 1.1 µM

For HOP-92 NSCLC, give TGI of the listed molecule: CN(C)CC1CCCC/C1=N\OC(=O)c1ccccc1 (stereo not given) > 100 µM

For HOP-92 NSCLC, give TGI of the listed molecule: Cc1c(C(=O)/C=C/c2ccc([N+](=O)[O-])cc2)[n+](=O)c2ccccc2n1[O-] > 100 µM

----------
- Test system: OVCAR-5 ovarian
- Test: NCI tumour cell line growth inhibition, 48 h
Assay Readout: GI50

Specify reported GI50 for the compound shown: C/C=C(/C)C(=O)OC1C=C(CO)C(=O)C(OC(=O)C2(C)OC2C)C1C(C)C (centres undefined) 1.93 µM

Specify reported GI50 for the compound shown: CC(=O)[CH-]C(=O)c1ccccc1.CC(=O)[CH-]C(=O)c1ccccc1.CC(=O)[CH-]C(=O)c1ccccc1.[Cl-].[Hf+4] 22.8 µM

Specify reported GI50 for the compound shown: Cc1ncnc2c1ccn2[C@@H]1C[C@H](Oc2cc(C(F)F)c(F)c3c2CNCC3)[C@@H](O)[C@H]1O > 100 µM

Specify reported GI50 for the compound shown: Cc1ccc2c(-c3ccnc(Nc4cccc(C(F)(F)F)c4)n3)c(-c3ccccc3)nn2n1 10.2 µM

----------
- Tested on: A549 NSCLC
- Test: NCI tumour cell line growth inhibition, 48 h
Kindly supply the reported TGI values for the records listed here.

Specify reported TGI for the compound shown: CCc1cccc(C(C)C)c1NC(=O)C(=O)Nn1c(=S)[nH]c2ccccc2c1=O > 100 µM

Specify reported TGI for the compound shown: CN1C(=O)C(O)CC1c1ccccc1F (stereo not drawn) > 100 µM

Specify reported TGI for the compound shown: Cc1c(CN2CCOCC2)c(CN2CCOCC2)c(C)n1-c1ccc(Cl)cn1 > 100 µM

Specify reported TGI for the compound shown: C/C(=C\CNc1ncnc2c1ncn2C1CCCCO1)COP(=O)(O)O (stereo not drawn) > 100 µM

Specify reported TGI for the compound shown: O=Nn1c2ccccc2c2ccccc21 > 100 µM

Specify reported TGI for the compound shown: C=CC(=O)C#Cc1cnc(OC)nc1OC > 100 µM

Specify reported TGI for the compound shown: Cc1cc2c3c(nc4ccccc42)C(=O)c2cccnc2-c3n1 1.84 µM

Specify reported TGI for the compound shown: O=C1NC(=Nc2ccccc2Cl)N/C1=C\c1c(Cl)cccc1Cl > 100 µM

Specify reported TGI for the compound shown: COc1ccc(NC(=O)CSc2nc(C)nc3c2sc(=S)n3-c2ccccc2)cc1 > 10 µM

Specify reported TGI for the compound shown: c1ccc(C2(c3cc4ccccc4[nH]3)OCCO2)nc1 > 100 µM

Specify reported TGI for the compound shown: COC(=O)c1ccccc1/C=C1\Cc2ccc3c(c2C1=O)CCC3 > 100 µM

Specify reported TGI for the compound shown: NC(N)=NCCCC(Nc1c2ccccc2nc2ccccc12)C(=O)O (stereo not drawn) > 100 µM

Specify reported TGI for the compound shown: CNc1ccc(C)cc1S(=O)(=O)c1ccccc1[N+](=O)[O-] > 100 µM

Specify reported TGI for the compound shown: CC(=O)NC(CCc1ccc(Cl)c(Cl)c1)c1cccc(O)c(=O)c1 (stereo not drawn) 11.5 µM

Specify reported TGI for the compound shown: N=C1C(c2nc3ccccc3c(=O)[nH]2)=C(O)CN1c1cccc(Cl)c1 > 100 µM

Specify reported TGI for the compound shown: Cc1c(C(=O)/C=C/c2ccc([N+](=O)[O-])cc2)[n+](=O)c2ccccc2n1[O-] > 100 µM

Specify reported TGI for the compound shown: O=[N+]([O-])c1ccc(C2Nn3c(nnc3-c3cccc([N+](=O)[O-])c3)S2)cc1 (stereo not drawn) > 100 µM

Specify reported TGI for the compound shown: NC(N)=N/N=C/c1c(-c2ccc([N+](=O)[O-])cc2)nc2sc(Cl)cn12 3.09 µM

Specify reported TGI for the compound shown: COc1ccc(/C=C/C(=O)C(=O)/C=C/c2ccc(OC)c(OC)c2)cc1OC > 100 µM

Specify reported TGI for the compound shown: Cc1ccc2c(-c3ccnc(Nc4cccc(C(F)(F)F)c4)n3)c(-c3ccccc3)nn2n1 > 25 µM

Specify reported TGI for the compound shown: CC(C)=NC(C(=O)O)C(C)(C)S (stereo not drawn) > 100 µM

Specify reported TGI for the compound shown: Cc1ccc(S(=O)(=O)NCCCSCCN)cc1 > 100 µM

Specify reported TGI for the compound shown: Nc1nc2c(ncn2C2OC(CO)C(O)C2O)c(=O)o1 (stereo not drawn) > 100 µM

----------
Kindly supply the reported TGI values for the records listed here.
- Test system: LOX IMVI melanoma
- Test: NCI tumour cell line growth inhibition, 48 h
Record the value in µM, omitting the unit from your answer.

Specify reported TGI for the compound shown: O=C(Oc1ccc(C(c2c(O)c3ccccc3oc2=O)c2c(O)c3ccccc3oc2=O)cc1)c1ccc(C(=O)c2ccccc2)cc1 52.1

Specify reported TGI for the compound shown: C=C(Cl)[C@](Cl)(CBr)CC[C@@H](Br)C(C)(C)Cl 32.1

Specify reported TGI for the compound shown: Cc1cc(N(C)c2ccccc2)nc(N(C)c2ccccc2)n1 27.9

Specify reported TGI for the compound shown: CC(=O)OC/C=C\Cn1ncc(=O)[nH]c1=O 13.3

Specify reported TGI for the compound shown: CCCCCCCCCCCCCCCC(=O)OCC1OC(OCCCC)[C@H](O[C@@H]2OC(C)C(OC(=O)CCC)C(O)C2O)C(O)C1O (stereo partly specified) 44

Specify reported TGI for the compound shown: CC(=O)[CH-]C(=O)c1ccccc1.CC(=O)[CH-]C(=O)c1ccccc1.CC(=O)[CH-]C(=O)c1ccccc1.[Cl-].[Hf+4] 92.2

Specify reported TGI for the compound shown: COC(=O)C1=C(N)C2=C(N)Oc3ccccc3C2CC1=C(C#N)C#N (stereo unspecified) 44.2

Specify reported TGI for the compound shown: COC1=CC(=O)C2=C(C1=O)[C@H]1CC[C@]3(C)C(=O)CC[C@H]3[C@@H]1CC2 35.4

Specify reported TGI for the compound shown: Cn1ccc(S(=O)(=O)N2CCC[C@H](Nc3nccc(-c4c(-c5cccc(O)c5)nc5occn45)n3)C2)n1 18.7

Specify reported TGI for the compound shown: O=S(O)CCCCCSSc1ccc(Cl)cc1 29.9

Specify reported TGI for the compound shown: CC(O)C1(O)C(O)CC(OC2c3cc4c(c(O)c3[C@@H]3C[C@@]2(C)OC32C=c3cc[nH]c3=N2)C(=O)c2cccc(O)c2C4=O)OC1C (stereo partly specified) 3.17

Specify reported TGI for the compound shown: C=C1C(=O)O[C@H]2C(=O)[C@H](C)CCC/C(C)=C/CC[C@@]3(C)O[C@@H]3C[C@@H]12 3.03

Specify reported TGI for the compound shown: COc1ccc(/C=C/C(=O)C(=O)/C=C/c2ccc(OC)c(OC)c2)cc1OC 3.21

Specify reported TGI for the compound shown: COc1ccc(-c2cc(-c3ccc(Cl)cc3)nc(SCCCC(=O)NO)n2)cc1OC 1.44

Specify reported TGI for the compound shown: C=C(CC)C(=O)c1ccc(OCC(=O)O)c(Cl)c1Cl 29.7

Specify reported TGI for the compound shown: COc1cc(C2C=C(C)N=C3SC=C(C)N32)cc(OC)c1OC (stereo unspecified) 1.73

Specify reported TGI for the compound shown: C[C@H]1[C@H]2[C@H](C[C@@]3(C)C4=CC[C@H]5C(C)(C)[C@@H](OC6OCC(O)C(O)C6O)CC[C@@]56C[C@@]46CC[C@]23C)O[C@@]2(O)[C@@H]1OC(C)(C)[C@H]2O (stereo partly specified) 6.28

Specify reported TGI for the compound shown: C=CCc1cc(O)ccc1O 48.8

Specify reported TGI for the compound shown: Nc1nc(N)c2c(Cl)c(CNc3ccc(Cl)c(Cl)c3)ccc2n1 7.37
